- assay protocol: Oral bioavailability in beagle dog at 5 mg/kg
- Format: ADME, organism-based, Canis lupus familiaris
- condition description: in vivo
readout type: bioavailability (%)
Record the value in %, omitting the unit from your answer.

Input line: Quick one: bioavailability of Cc1cc(Nc2nc(O[C@@H](C)c3ncc(F)cn3)c(F)c(N3CCOCC3)n2)n[nH]1 ?
Output line: 56

###

Give measured pIC50 for each item. Keep answers brief.
- system: Tyrosine-protein kinase JAK2 (Homo sapiens, UniProt O60674)
- Sequence (O60674 whole entry): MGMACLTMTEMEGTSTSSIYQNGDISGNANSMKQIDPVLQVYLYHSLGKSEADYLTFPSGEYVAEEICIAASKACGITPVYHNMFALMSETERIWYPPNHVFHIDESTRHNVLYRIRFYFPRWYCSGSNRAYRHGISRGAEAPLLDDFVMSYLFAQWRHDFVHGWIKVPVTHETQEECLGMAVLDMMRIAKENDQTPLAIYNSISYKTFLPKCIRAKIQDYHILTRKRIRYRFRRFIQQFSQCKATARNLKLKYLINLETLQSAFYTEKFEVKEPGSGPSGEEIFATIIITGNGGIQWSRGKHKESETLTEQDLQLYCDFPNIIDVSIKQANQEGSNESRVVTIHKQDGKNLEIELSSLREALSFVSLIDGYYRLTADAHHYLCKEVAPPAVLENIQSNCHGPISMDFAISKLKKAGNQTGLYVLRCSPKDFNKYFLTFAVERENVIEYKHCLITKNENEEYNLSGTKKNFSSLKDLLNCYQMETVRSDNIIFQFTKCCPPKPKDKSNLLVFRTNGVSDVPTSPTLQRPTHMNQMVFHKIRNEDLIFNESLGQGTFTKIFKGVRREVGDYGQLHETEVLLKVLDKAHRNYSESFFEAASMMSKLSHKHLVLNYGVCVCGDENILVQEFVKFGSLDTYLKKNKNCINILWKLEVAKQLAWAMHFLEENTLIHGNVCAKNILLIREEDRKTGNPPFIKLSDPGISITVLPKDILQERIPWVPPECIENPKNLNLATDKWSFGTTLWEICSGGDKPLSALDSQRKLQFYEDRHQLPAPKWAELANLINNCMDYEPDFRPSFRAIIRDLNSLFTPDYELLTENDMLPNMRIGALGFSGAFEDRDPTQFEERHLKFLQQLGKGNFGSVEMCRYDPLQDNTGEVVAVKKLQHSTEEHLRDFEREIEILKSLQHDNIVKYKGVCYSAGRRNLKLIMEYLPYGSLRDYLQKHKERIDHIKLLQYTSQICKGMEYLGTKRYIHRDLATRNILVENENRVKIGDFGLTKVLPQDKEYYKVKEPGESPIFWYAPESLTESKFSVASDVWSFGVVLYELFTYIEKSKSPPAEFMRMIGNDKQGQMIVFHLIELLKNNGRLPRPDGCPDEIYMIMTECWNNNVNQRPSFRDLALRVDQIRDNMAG
- assay protocol: Inhibition of JAK2 (unknown origin) using biotinylated TYK2 peptide as substrate after 60 mins
Value format note: pIC50 is -log10 of concentration (mol/L); just state the number.

Input line: Quick one: pIC50 of Cc1cc(Nc2nc(N[C@@H](C)c3ccc(F)cn3)c(F)c(N3CCS(=O)(=O)CC3)n2)n[nH]1 ?
Output line: 8.52

Input line: Quick one: pIC50 of Cc1cc(Nc2nc(N[C@@H](C)c3ccc(F)cn3)c(Cl)c(N3CCOCC3)n2)[nH]n1 ?
Output line: 8.22

Input line: Quick one: pIC50 of Cc1cc(Nc2nc(N[C@@H](C)c3ncc(F)cc3F)c(F)c(N3CCOCC3)n2)n[nH]1 ?
Output line: 8.52

Input line: Quick one: pIC50 of Cc1cc(Nc2nc(N[C@@H](C)c3ncc(F)cn3)c(F)c(N3CCOCC3)n2)[nH]n1 ?
Output line: 8.52

Input line: Quick one: pIC50 of Cc1cc(Nc2nc(N[C@@H](C)c3ccc(F)cn3)c(F)c(N3CCNCC3)n2)n[nH]1 ?
Output line: 8.40

Input line: Quick one: pIC50 of Cc1cc(Nc2nc(N[C@@H](C)c3ncc(F)cn3)cc(N3CCOCC3)n2)n[nH]1 ?
Output line: 8.30

Input line: Quick one: pIC50 of Cc1cnc(Nc2nc(N[C@@H](C)c3ncc(F)cn3)nc(N3CCOCC3)c2F)s1 ?
Output line: 7.60

Input line: Quick one: pIC50 of Cc1cc(Nc2nc(O[C@@H](C)c3ccc(F)cn3)c(F)c(N3CCOCC3)n2)n[nH]1 ?
Output line: 8.40
